assay: Pharmacokinetic parameters in SD rats; format: in vivo, Sprague-Dawley rats; conditions: Sprague-Dawley, rat, single oral 3 mg/kg in 30% PEG400, plasma, read-out: AUC0-t (mean ± SD)
Measured Quantity: AUC(0-t) (ng·h/mL)
Record the value in ng·h/mL, omitting the unit from your answer.

| Molecule | AUC(0-t) (ng·h/mL) |
| --- | --- |
| CCOc1ccc(Cc2cc([C@@H]3O[C@H](CO)[C@@H](O)[C@H](O)[C@H]3O)ccc2Cl)cc1 [Ref A, reference compound] | 11300 |
| [2H]C([2H])(C)Oc1ccc(Cc2cc([C@@H]3O[C@H](CO)[C@@H](O)[C@H](O)[C@H]3O)ccc2Cl)cc1 [24a] | 20300 |
| [2H]C([2H])(c1ccc(OC([2H])([2H])C([2H])([2H])[2H])cc1)c1cc([C@@H]2O[C@H](CO)[C@@H](O)[C@H](O)[C@H]2O)ccc1Cl | 21000 |
| OC[C@H]1O[C@@H](c2ccc(Cl)c(Cc3ccc(C4CC4)cc3)c2)[C@H](O)[C@@H](O)[C@@H]1O [Ref C, reference compound] | 9770 |

// moving on: another record for AUC(0-t)
Task item: Consider the molecule shown here: [2H]C([2H])([2H])C([2H])([2H])Oc1ccc(Cc2cc([C@@H]3O[C@H](CO)[C@@H](O)[C@H](O)[C@H]3O)ccc2Cl)cc1 [24c] What is its recorded AUC(0-t)?
Reply: 21200

---

test system: SD rats; assay: Urinary glucose excretion in SD rats; assay type: in vivo; settings: 1 mg/kg oral, glucose 2 g/kg 1 h post dose, 0-24 h
The compounds listed here are annotated with their Urinary Glucose Excretion in Rats, 0-24 h (mean ± SD).
Answer with the value and then the unit.

| Compound | Data Value |
| --- | --- |
| [2H]C([2H])([2H])Oc1ccc(Cc2cc([C@@H]3O[C@H](CO)[C@@H](O)[C@H](O)[C@H]3O)ccc2Cl)cc1 [24d] | 2234 ± 199 mg |

Task item: Consider the compound shown here: [2H]C([2H])([2H])Oc1ccc(C([2H])([2H])c2cc([C@@H]3O[C@H](CO)[C@@H](O)[C@H](O)[C@H]3O)ccc2Cl)cc1 What is its recorded Urinary Glucose Excretion in Rats, 0-24 h (mean ± SD)?
Reply: 2096 ± 332 mg

Task item: Consider the compound shown here: COc1ccc(Cc2cc([C@@H]3O[C@H](CO)[C@@H](O)[C@H](O)[C@H]3O)ccc2Cl)cc1 [Ref B, reference compound] What is its recorded Urinary Glucose Excretion in Rats, 0-24 h (mean ± SD)?
Reply: 1889 ± 361 mg

Task item: Consider the compound shown here: [2H]C([2H])([2H])Oc1ccc(Cc2cc([C@]3([2H])O[C@H](CO)[C@@H](O)[C@H](O)[C@H]3O)ccc2Cl)cc1 [24e] What is its recorded Urinary Glucose Excretion in Rats, 0-24 h (mean ± SD)?
Reply: 2525 ± 266 mg

Task item: Consider the compound shown here: [2H][C@@]1(c2ccc(Cl)c(Cc3ccc(OCC)cc3)c2)O[C@H](CO)[C@@H](O)[C@H](O)[C@H]1O What is its recorded Urinary Glucose Excretion in Rats, 0-24 h (mean ± SD)?
Reply: 2650 ± 385 mg

---

experiment: Pharmacokinetic parameters in SD rats; assay type: in vivo, Sprague-Dawley rats; settings: Sprague-Dawley, rat, single oral 3 mg/kg in 30% PEG400, plasma, read-out: AUC0-t (mean ± SD)
Measured Quantity: AUC(0-t) (ng·h/mL)
Record the value in ng·h/mL, omitting the unit from your answer.

| Compound | AUC(0-t) / ng·h/mL |
| --- | --- |
| [2H]C([2H])(COc1ccc(Cc2cc([C@@H]3O[C@H](CO)[C@@H](O)[C@H](O)[C@H]3O)ccc2Cl)cc1)OC1CC1 | 5240 |
| [2H]C([2H])(c1ccc(C2CC2)cc1)c1cc([C@@H]2O[C@H](CO)[C@@H](O)[C@H](O)[C@H]2O)ccc1Cl | 10600 |
| [2H]C([2H])([2H])Oc1ccc(Cc2cc([C@@H]3O[C@H](CO)[C@@H](O)[C@H](O)[C@H]3O)ccc2Cl)cc1 [24d] | 6680 |
| COc1ccc(Cc2cc([C@@H]3O[C@H](CO)[C@@H](O)[C@H](O)[C@H]3O)ccc2Cl)cc1 [Ref B, reference compound] | 5240 |
| [2H]C([2H])(c1ccc(OCC)cc1)c1cc([C@@H]2O[C@H](CO)[C@@H](O)[C@H](O)[C@H]2O)ccc1Cl | 15300 |

// moving on: another record for AUC(0-t)
Task item: Consider the compound shown here: OC[C@H]1O[C@@H](c2ccc(Cl)c(Cc3ccc(OCCOC4CC4)cc3)c2)[C@H](O)[C@@H](O)[C@@H]1O [Ref G, reference compound] What is its recorded AUC(0-t)?
Reply: 4240

---

assay: Pharmacokinetic parameters in SD rats; assay type: in vivo, Sprague-Dawley rats; details: single oral 3 mg/kg in 30% PEG400, plasma
Measured Quantity: tmax (mean ± SD) (h)
Record the value in h, omitting the unit from your answer.

Guide cases for tmax (mean ± SD), answers given:
| Compound | Result Unit | Data Value |
| --- | --- | --- |
| [2H]C([2H])(c1ccc(OCC)cc1)c1cc([C@@H]2O[C@H](CO)[C@@H](O)[C@H](O)[C@H]2O)ccc1Cl | h | 1.69 |
| [2H]C([2H])([2H])Oc1ccc(Cc2cc([C@@H]3O[C@H](CO)[C@@H](O)[C@H](O)[C@H]3O)ccc2Cl)cc1 [24d] | h | 1.19 |
| [2H]C([2H])(c1ccc(OC([2H])([2H])C([2H])([2H])[2H])cc1)c1cc([C@@H]2O[C@H](CO)[C@@H](O)[C@H](O)[C@H]2O)ccc1Cl | h | 1.00 |

Task item: Consider the compound shown here: COc1ccc(Cc2cc([C@@H]3O[C@H](CO)[C@@H](O)[C@H](O)[C@H]3O)ccc2Cl)cc1 [Ref B, reference compound] What is its recorded tmax (mean ± SD)?
Reply: 0.56

---

assay: Pharmacokinetic parameters in SD rats; format: in vivo, Sprague-Dawley rats; details: single oral 3 mg/kg in 30% PEG400, plasma
Measured Quantity: t1/2 (mean ± SD)
Answer with the value and then the unit.

| Molecule | t1/2 (mean ± SD) |
| --- | --- |
| [2H]C([2H])(c1ccc(OCC)cc1)c1cc([C@@H]2O[C@H](CO)[C@@H](O)[C@H](O)[C@H]2O)ccc1Cl [compound 9] | 5.14 ± 1.28 h |
| [2H]C([2H])([2H])Oc1ccc(Cc2cc([C@@H]3O[C@H](CO)[C@@H](O)[C@H](O)[C@H]3O)ccc2Cl)cc1 [24d] | 6.34 ± 2.79 h |

Task item: Consider the molecule shown here: CCOc1ccc(Cc2cc([C@@H]3O[C@H](CO)[C@@H](O)[C@H](O)[C@H]3O)ccc2Cl)cc1 [Ref A, reference compound] What is its recorded t1/2 (mean ± SD)?
Reply: 4.52 ± 0.98 h

Task item: Consider the molecule shown here: [2H]C([2H])(c1ccc(OC([2H])([2H])C([2H])([2H])[2H])cc1)c1cc([C@@H]2O[C@H](CO)[C@@H](O)[C@H](O)[C@H]2O)ccc1Cl [compound 16] What is its recorded t1/2 (mean ± SD)?
Reply: 5.70 ± 0.63 h

Task item: Consider the molecule shown here: [2H]C([2H])(C)Oc1ccc(Cc2cc([C@@H]3O[C@H](CO)[C@@H](O)[C@H](O)[C@H]3O)ccc2Cl)cc1 [24a] What is its recorded t1/2 (mean ± SD)?
Reply: 4.56 ± 0.64 h

Task item: Consider the molecule shown here: COc1ccc(Cc2cc([C@@H]3O[C@H](CO)[C@@H](O)[C@H](O)[C@H]3O)ccc2Cl)cc1 [Ref B, reference compound] What is its recorded t1/2 (mean ± SD)?
Reply: 3.55 ± 1.80 h

Task item: Consider the molecule shown here: [2H]C([2H])([2H])C([2H])([2H])Oc1ccc(Cc2cc([C@@H]3O[C@H](CO)[C@@H](O)[C@H](O)[C@H]3O)ccc2Cl)cc1 [24c] What is its recorded t1/2 (mean ± SD)?
Reply: 6.05 ± 0.85 h

---

assay: Pharmacokinetic parameters in SD rats; assay type: in vivo, Sprague-Dawley rats; settings: Sprague-Dawley, rat, single oral 3 mg/kg in 30% PEG400, plasma
Measured Quantity: Tmax (h)
Record the value in h, omitting the unit from your answer.

Guide cases for Tmax, answers given:
| Compound | Measured Quantity | Result Unit | Data Value |
| --- | --- | --- | --- |
| [2H]C([2H])(c1ccc(C2CC2)cc1)c1cc([C@@H]2O[C@H](CO)[C@@H](O)[C@H](O)[C@H]2O)ccc1Cl [compound 54] | Tmax | h | 2 |
| OC[C@H]1O[C@@H](c2ccc(Cl)c(Cc3ccc(OCCOC4CC4)cc3)c2)[C@H](O)[C@@H](O)[C@@H]1O [Ref G, reference compound] | Tmax | h | 1.88 |
| OC[C@H]1O[C@@H](c2ccc(Cl)c(Cc3ccc(C4CC4)cc3)c2)[C@H](O)[C@@H](O)[C@@H]1O [Ref C, reference compound] | Tmax | h | 3 |

// moving on: another record for Tmax
Task item: Consider the compound shown here: [2H]C([2H])(COc1ccc(Cc2cc([C@@H]3O[C@H](CO)[C@@H](O)[C@H](O)[C@H]3O)ccc2Cl)cc1)OC1CC1 [compound 95] What is its recorded Tmax?
Reply: 2.13

Data origin: patent US9061060B2
